The reported numbers originate from the Deep4Chem optical property database.

Assay: solvent given as SMILES
Details: in c1ccccc1
One threshold, 500 nm, splits the recorded emission maximum values: lower ones are satisfied, equal or higher ones are not satisfied.

Take a look at these entries with their results.
[
  {
    "molecule": "COc1ccc2nc(-c3ccccc3)c(=O)oc2c1",
    "class": "satisfied"
  },
  {
    "molecule": "CC(C)[Si]1(C(C)C)c2cc(C#N)ccc2-c2ccc(N(c3ccccc3)c3ccccc3)cc21",
    "class": "satisfied"
  },
  {
    "molecule": "CCC[n+]1ccc(/C=C/c2ccc(N(C)C)cc2)cc1",
    "class": "not satisfied"
  },
  {
    "molecule": "O=c1oc2ccc3ccccc3c2nc1-c1ccc(Cl)cc1",
    "class": "satisfied"
  }
]

Inquiry: I'd appreciate it if you could check whether CN(C)c1cccc2c1C(=O)c1ccccc1-2 has emission maximum smaller than 500 nm.
Reply text: not satisfied

Inquiry: I'd appreciate it if you could check whether CC(C)(C)C1Nc2ccccc2C(=O)N1Cc1ccccc1 (stereo not given) has emission maximum smaller than 500 nm.
Reply text: satisfied

Inquiry: I'd appreciate it if you could check whether Nc1cccc2c1C(=O)c1ccccc1-2 has emission maximum smaller than 500 nm.
Reply text: satisfied

Inquiry: I'd appreciate it if you could check whether CN(C)c1cc(C#N)c(N(C)C)c(C#N)c1 has emission maximum smaller than 500 nm.
Reply text: not satisfied

---

Assay: solvent given as SMILES
Details: in C1COCCO1
The class of a record is decided solely by its measured emission maximum; consult low: < 500 nm; middle: ≥ 500 nm and < 600 nm; high: ≥ 600 nm

Take a look at these entries with their results.
[
  {
    "compound": "CCCCN(CCCC)c1ccc(/C=C/c2ccc3nc(/C=C/c4nc5ccc(/C=C/c6ccc(N(CCCC)CCCC)cc6)cc5n(CCC)c4=O)c(=O)n(CCC)c3c2)cc1",
    "class": "high"
  },
  {
    "compound": "COc1nc(Nc2ccc3c4cccc5cccc(c6cccc2c63)c54)nc(OC)n1",
    "class": "low"
  },
  {
    "compound": "CCCCCCCCCCCCCCCCN(CCCCCCCCCCCCCCCC)c1ccc(/C=C/c2cc[n+](Cc3cc(C[n+]4ccc(/C=C/c5ccc(N(CCCCCCCCCCCCCCCC)CCCCCCCCCCCCCCCC)cc5)cc4)cc(C[n+]4ccc(/C=C/c5ccc(N(CCCCCCCCCCCCCCCC)CCCCCCCCCCCCCCCC)cc5)cc4)c3)cc2)cc1",
    "class": "middle"
  },
  {
    "compound": "COC(=O)c1nc2c(N(C)C)nc(N(C)C)nc2n1Cc1ccccc1",
    "class": "low"
  },
  {
    "compound": "CN(C)c1ccc(/C=C/c2ccc([N+](=O)[O-])c(O)c2)cc1",
    "class": "high"
  }
]

Inquiry: Input Fc1ccc(-c2nc3n(c2-c2ccncc2)CCS3)cc1 ; output its category
Reply text: low

Inquiry: Input COC(=O)c1ccc(/C=C2\N=C(c3ccc(OC)c(OC)c3)NC2=O)cc1 ; output its category
Reply text: low

Inquiry: Input CN(C)c1ccc(/C=C/c2cc[n+](Cc3cc(C[n+]4ccc(/C=C/c5ccc(N(C)C)cc5)cc4)cc(C[n+]4ccc(/C=C/c5ccc(N(C)C)cc5)cc4)c3)cc2)cc1 ; output its category
Reply text: middle

Inquiry: Input CCCCCCCN1C(=CC2=C([O-])C(=CC3=[N+](CCCCCCC)c4ccccc4C3(C)C)C2=C(C#N)C#N)Sc2ccccc21 ; output its category
Reply text: high

Inquiry: Input CCCCCCCCC1(CCCCCCCC)c2cc(C=O)ccc2-c2ccc(/C=C/c3ccc(N(c4ccccc4)c4ccccc4)cc3)cc21 ; output its category
Reply text: low

Inquiry: Input COc1ccc(-c2ccc(-c3ccc(F)cc3)cc2)cc1 ; output its category
Reply text: low

Inquiry: Input COc1ccc(C2=N/C(=C\c3ccccc3)C(=O)N2)cc1OC ; output its category
Reply text: low

Inquiry: Input Cc1n[nH]c2c1C(c1ccc([N+](=O)[O-])cc1)C(C#N)=C(N)O2 (stereo unspecified) ; output its category
Reply text: low

---

Test: solvent given as SMILES
Conditions: in CCCCCC
Exercise: for every item that follows, state its recorded emission maximum.
One number for each entry, in nm.

[
  {
    "compound": "O=C1OC(=O)c2ccc(N(c3ccccc3)c3ccc4ccc5cccc6ccc3c4c56)c3cccc1c23",
    "unit_spec": "nm",
    "emission maximum": 536
  }
]

Quick batch: emission maximum for everything below.
1. O=Cc1cc(N2CCCCC2)c2ccc3c(N4CCCCC4)cc(N4CCCCC4)c4ccc1c2c43
2. c1ccc2c(c1)[nH]c1ccccc12
3. COc1ccc2c(c1)CCc1c-2nc(N)c(C#N)c1-c1ccc(Br)cc1
4. COC(=O)/C=C/c1ccc2ccc3cccc4ccc1c2c34
5. C1=C(c2ccc(-c3cccs3)s2)CCC1
6. COC1(OC)C2(Cl)c3nc4cc(-c5cccs5)ccc4nc3C1(Cl)C1C[C@H]3[C@@H](CC12)C1(Cl)c2nc4ccc(-c5cccs5)cc4nc2C3(Cl)C1(OC)OC (some centres undefined)
7. N#CC1=c2c3cccc4cccc(c43)n2[B-](F)(F)[n+]2ccccc21
8. O=S1(=O)c2ccc(-c3ccc(-n4c5ccccc5c5ccccc54)cc3)cc2C2(c3ccccc3-c3ccccc32)c2cc(-c3ccc(-n4c5ccccc5c5ccccc54)cc3)ccc21

Reply text:
520
332
392
406.5
410
412
530
400.18

---

Experiment: solvent given as SMILES
Conditions: in CO
Rule: emission maximum of 600 nm or more gives TRUE; anything lower gives FALSE.

[
  {
    "structure_smiles_string": "O=[N+]([O-])c1ccc(NCCN(Cc2c3ccccc3cc3ccccc23)c2ccc([N+](=O)[O-])cc2[N+](=O)[O-])c([N+](=O)[O-])c1",
    "class": "FALSE"
  },
  {
    "structure_smiles_string": "CC(=O)c1ccc(-c2nc3ccc(N(C)C)c(Br)c3s2)cc1",
    "class": "TRUE"
  }
]

Inquiry: Check this compound for emission maximum at or above 600 nm: CC1(C)C(/C=C/C2=C(Oc3ccc(CCN=C=S)cc3I)C(=C/C=C3/N(CCCS(=O)(=O)[O-])c4ccccc4C3(C)C)/CCC2)=[N+](CCCS(=O)(=O)[O-])c2ccccc21
Reply text: TRUE

Inquiry: Check this compound for emission maximum at or above 600 nm: Cc1ccc(C2=C3C=CC(C#Cc4ccccc4)=[N+]3[B-](F)(F)n3c(C#Cc4ccccc4)ccc32)cc1
Reply text: TRUE

Inquiry: Check this compound for emission maximum at or above 600 nm: CCCCNc1ccc(NCCCC)c2c1C(=O)c1ccccc1C2=O
Reply text: TRUE

Inquiry: Check this compound for emission maximum at or above 600 nm: COc1ccc(/C=C(\C)c2nc3ccccc3s2)cc1
Reply text: FALSE

Inquiry: Check this compound for emission maximum at or above 600 nm: CC[n+]1c(C=C2C(=O)C(C=C3N(C)c4ccccc4C3(C)C)=C2[O-])[se]c2ccccc21
Reply text: TRUE

Inquiry: Check this compound for emission maximum at or above 600 nm: CN1/C(=C/C=C(/C=C/c2sc3ccccc3[n+]2C)c2ccc(F)cc2)Sc2ccccc21
Reply text: TRUE

Inquiry: Check this compound for emission maximum at or above 600 nm: c1ccc(N(c2ccccc2)c2ccc(-c3ncc(-c4ccncc4)s3)cc2)cc1
Reply text: FALSE

---

Exercise: for every item that follows, state its recorded emission maximum.
Test: solvent given as SMILES
Conditions: in CC1CCCCC1
Give bare numbers, in nm.

// below: answered compounds
[
  {
    "compound": "c12c3c4c5c1c1c6c7c2c2c8c3c3c9c4c4c%10c5c5c1c1c6c6c%11c%12c%13c%14c%15c%16c%17c%14c%14c%18c%13c%11c1c1c5c%10c5c(c%14c%10c%17c%11c%13c%16c%14c%16c%15c%12c%12c%16c(c2c7c%126)c2c8c3c(c%13c%142)c2c9c4c5c%10c%112)c%181",
    "unit_spec": "nm",
    "emission maximum": 650
  },
  {
    "compound": "C(=C\\c1c2ccccc2cc2ccccc12)/c1cccc2ccccc12",
    "unit_spec": "nm",
    "emission maximum": 501
  }
]

# input for lookup
Inquiry: For the compound COC(=O)C(NC(=O)OC(C)(C)C)c1ccc2oc(-c3ccc(O)cc3O)nc2c1 (stereo not drawn) , what emission maximum is on record?
Reply text: 470

---

Assay: solvent given as SMILES
Conditions: in Cc1ccccc1
One threshold, 500 nm, splits the recorded emission maximum values: lower ones are Satisfied, equal or higher ones are Not satisfied.

[
  {
    "structure_smiles_string": "CCCCCCCCCCCCCCCCN(CCCCCCCCCCCCCCCC)c1ccc(/C=C/c2cc[n+](Cc3cc(C[n+]4ccc(/C=C/c5ccc(N(CCCCCCCCCCCCCCCC)CCCCCCCCCCCCCCCC)cc5)cc4)cc(C[n+]4ccc(/C=C/c5ccc(N(CCCCCCCCCCCCCCCC)CCCCCCCCCCCCCCCC)cc5)cc4)c3)cc2)cc1",
    "class": "Not satisfied"
  },
  {
    "structure_smiles_string": "Cc1cccc2cc(-c3cc4cccc(C)c4oc3=O)oc12",
    "class": "Satisfied"
  },
  {
    "structure_smiles_string": "CC(C)(C)c1ccc2c(c1)c1cc(C(C)(C)C)ccc1n2-c1ccc2c(c1)C(=O)c1ccc(-n3c4ccc(C(C)(C)C)cc4c4cc(C(C)(C)C)ccc43)cc1C2=O",
    "class": "Not satisfied"
  },
  {
    "structure_smiles_string": "O=c1c2ccccc2n2c3ccccc3c(=O)c3cc(-c4ccccc4)cc1c32",
    "class": "Satisfied"
  },
  {
    "structure_smiles_string": "Cc1cc(C)c(B(c2ccc(N(c3ccccc3)c3ccccc3)cc2)c2c(C)cc(C)cc2C)c(C)c1",
    "class": "Satisfied"
  },
  {
    "structure_smiles_string": "CCN(CC)c1ccc(/C=C/c2ccc(-c3ccc(/C=C/c4ccc(N(CC)CC)cc4)s3)s2)cc1",
    "class": "Not satisfied"
  },
  {
    "structure_smiles_string": "O=Cc1ccc(C2=C3C=c4c(oc5ccccc45)=[N+]3[B-](F)(F)n3c2cc2c4ccccc4oc23)cc1",
    "class": "Not satisfied"
  },
  {
    "structure_smiles_string": "CC(C)(C)c1ccc2c(c1)c1cc(C(C)(C)C)ccc1n2-c1ccc(S(=O)(=O)c2ccc(-n3c4ccc(C(C)(C)C)cc4c4cc(C(C)(C)C)ccc43)cc2)cc1",
    "class": "Satisfied"
  }
]

Let us examine a further case.
Inquiry: I'd appreciate it if you could check whether C(=C\c1ccccn1)/c1ccc(N(c2ccc(/C=C/c3ccccn3)cc2)c2ccc(-c3nc4ccccc4nc3-c3ccc(N(c4ccc(/C=C/c5ccccn5)cc4)c4ccc(/C=C/c5ccccn5)cc4)cc3)cc2)cc1 has emission maximum smaller than 500 nm.
Reply text: Not satisfied
